Values from patent US9149475B2

# Test system: Human primary T cells
# ASSAY NOTES: IL-2 ELISA, human primary T cell, anti-CD3+CD28+ (whole cell assay)
# Format: cell-based
# DETAILS: Homo sapiens, T-cell, 24 h, human primary T cells stimulated with anti-CD3 + anti-CD28, 24 hours
Below: a set of entries, each annotated with reported IC50.
MEASUREMENT NAME: IC50

>>> result("CN1C(C)(C)CC(Nc2nc(Nc3cccc(-c4nnnn4C4CC4)c3)ncc2F)CC1(C)C")
"< 250 nM"
>>> result("CN1C(C)(C)CC(Nc2nc(Nc3ccc(OC4CCN(CCO)CC4)c(F)c3)ncc2F)CC1(C)C")
"500 to 1000 nM"
>>> result("CC1(C)CC(Nc2nc(Nc3ccc(Oc4ccncc4)c(OC(F)F)c3)ncc2C#N)CC(C)(C)N1")
"500 to 1000 nM"
>>> result("CC1(C)CC(Nc2nc(Nc3ccc(OC(C)(C)CCN4CCCC4)c(F)c3)ncc2F)CC(C)(C)N1")
"500 to 1000 nM"
>>> result("CN1C(C)(C)CC(Nc2nc(Nc3ccc(OC(C)(C)CN4CCOCC4)c(OC(F)F)c3)ncc2F)CC1(C)C")
"< 250 nM"
>>> result("CC(C)Oc1ncc(Nc2ncc(F)c(NC3CC(C)(C)N(C)C(C)(C)C3)n2)cc1-c1nnnn1C(C)C")
"500 to 1000 nM"
>>> result("CC1(C)CC(Nc2nc(Nc3cnc(OCCN4CCCC4)c(OC(F)F)c3)ncc2F)CC(C)(C)N1")
"> 1000 nM"
>>> result("CC(C)N1CCC(Oc2ccc(Nc3ncc(F)c(NC4CC(C)(C)N(C)C(C)(C)C4)n3)cc2C(F)(F)F)CC1")
"< 250 nM"
>>> result("CN1C(C)(C)CC(Nc2nc(Nc3ccc(OCCn4ccnn4)c(OC(F)F)c3)ncc2F)CC1(C)C")
"250 to 500 nM"
>>> result("CN1C(C)(C)CC(Nc2nc(Nc3ccc(OC4CCOCC4)c(F)c3)ncc2F)CC1(C)C")
"500 to 1000 nM"
>>> result("CC(C)N1CCC(Oc2ccc(Nc3ncc(F)c(NC4CC(C)(C)N(C)C(C)(C)C4)n3)cc2OC(F)F)C(F)(F)C1 (stereo not drawn)")
"500 to 1000 nM"
>>> result("Cc1nnnn1-c1cc(Nc2ncc(F)c(NC3CC(C)(C)N(CC4CC4)C(C)(C)C3)n2)ccc1F")
"> 1000 nM"
>>> result("Cc1nnnn1-c1cccc(Nc2ncc(F)c(NC3CC(C)N(C4CC4)C(C)C3)n2)c1 (stereo not drawn)")
"< 250 nM"
>>> result("Cc1nnnn1-c1cc(Nc2ncc(F)c(NC3CC(C)(C)N(C)C(C)(C)C3)n2)cnc1O")
"> 1000 nM"
>>> result("CN1C(C)(C)CC(Nc2nc(Nc3ccc(OCCn4ccnn4)c(OC(F)F)c3)ncc2C#N)CC1(C)C")
"250 to 500 nM"
